- System Under Test: C-X-C chemokine receptor type 4 (Homo sapiens, UniProt P61073)
- Sequence (P61073 whole entry): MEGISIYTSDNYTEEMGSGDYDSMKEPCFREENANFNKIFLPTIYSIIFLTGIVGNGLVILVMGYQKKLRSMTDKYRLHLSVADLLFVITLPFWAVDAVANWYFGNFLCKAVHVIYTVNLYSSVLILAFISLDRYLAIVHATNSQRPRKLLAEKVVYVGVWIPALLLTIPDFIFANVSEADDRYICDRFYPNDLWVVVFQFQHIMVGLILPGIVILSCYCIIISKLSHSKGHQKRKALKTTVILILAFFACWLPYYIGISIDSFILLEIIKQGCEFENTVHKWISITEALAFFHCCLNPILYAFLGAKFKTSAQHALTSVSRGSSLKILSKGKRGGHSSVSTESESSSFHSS
- Protocol: Displacement of [125I]SDF-1alpha from CXCR4 expressed in HEK293 cell membrane after 1 hr
- Type: cell membranes
Assay Metric: IC50 (nM)

NC(N)=NCCC[C@H]1/C=C/[C@@H](Cc2ccc(O)cc2)NC(=O)CNC(=O)[C@H](Cc2ccc3ccccc3c2)NC(=O)[C@H](CCCN=C(N)N)NC1=O :: 330
C/C1=C(/C)[C@@H](Cc2ccc(O)cc2)NC(=O)CNC(=O)[C@H](Cc2ccc3ccccc3c2)NC(=O)[C@H](CCCNC(=N)N)NC(=O)[C@H]1CCCNC(=N)N :: 2500
CN1C(=O)[C@@H](Cc2ccc(O)cc2)NC(=O)CNC(=O)[C@H](Cc2ccc3ccccc3c2)NC(=O)[C@H](CCCNC(=N)N)NC(=O)[C@@H]1CCCNC(=N)N :: 290

(a) C/C1=C(/C)[C@@H](CCCNC(=N)N)C(=O)N[C@@H](CCCNC(=N)N)C(=O)N[C@@H](Cc2ccc3ccccc3c2)C(=O)NCC(=O)N[C@@H]1Cc1ccc(O)cc1
(b) CN1C(=O)[C@@H](Cc2ccc(O)cc2)NC(=O)CNC(=O)[C@H](Cc2ccc3ccccc3c2)NC(=O)[C@H](CCCN=C(N)N)NC(=O)[C@H]1CCCN=C(N)N
(c) C/C1=C\[C@H](CCCNC(=N)N)C(=O)N[C@@H](CCCNC(=N)N)C(=O)N[C@@H](Cc2ccc3ccccc3c2)C(=O)NCC(=O)N[C@@H]1Cc1ccc(O)cc1
Req: Write the entries in order, lowest recorded IC50 first. # format: label list in the order the request specifies
Resp: b, a, c
(b: 63 nM, a: 100 nM, c: 500 nM)
